Data credit: ChEMBL document CHEMBL4689842

# System: Fibroblast
# Measurement notes: Multiplex assay against human fibroblast
# Type: toxicity, cell-based
# Cond: 24 h, 1 µM, compound concentration 1 uM, replicate 2
The following compounds are listed with their measured Population Mitochondria Different-Phenotype (%) values.
Reported endpoint: Population Mitochondria Different-Phenotype (%)

INSERT INTO measurements (structure_string, measure_unit, observed_result) VALUES
  ('Cc1csc2c(N[C@@H](C)CN3CCN(S(=O)(=O)c4ccc(Cl)c(Cl)c4)CC3)ncnc12', '%', 25),
  ('COc1cc(-n2cnc3cc(-c4ccc(Cl)cc4)sc3c2=O)ccc1OCCN1CCCC1', '%', 25),
  ('Cc1nc(-c2cn3c(n2)-c2ccc(-c4cnn(C(C)(C)C(N)=O)c4)cc2OCC3)n(C(C)C)n1', '%', 0);

---

The following compounds are listed with their measured Population Normal (%) values.
# System: U2OS
# Measurement notes: Multiplex assay against U2OS
# Format: toxicity, cell-based
# Cond: human, 48 h, 10 µM, compound concentration 10 uM, replicate 1
Reported endpoint: Population Normal (%)

INSERT INTO results (compound, target_or_test_system, measure_unit, observed_result) VALUES
  ('CN(C)CC#Cc1ccc(OCCCc2sc(N3CCc4cccc(C(=O)Nc5nc6ccccc6s5)c4C3)nc2C(=O)O)c(F)c1 [A-1155463]', 'U2OS', '%', 90),
  ('Cc1csc2c(N[C@@H](C)CN3CCN(S(=O)(=O)c4ccc(Cl)c(Cl)c4)CC3)ncnc12', 'U2OS', '%', 91),
  ('C[C@@]1(C(=O)Nc2ccc(F)nc2)CCCN1c1nc(Nc2cc(C3CC3)n[nH]2)c2cccn2n1 [BMS-754807]', 'U2OS', '%', 88),
  ('Cc1c(-c2ccc(O)cc2)n(Cc2ccc(OCCN3CCCCCC3)cc2)c2ccc(O)cc12 [BAZEDOXIFENE]', 'U2OS', '%', 90),
  ('Cc1[nH]c(/C=C2\C(=O)Nc3ccc(S(=O)(=O)N(C)c4cccc(Cl)c4)cc32)c(C)c1C(=O)N1CCN(C)CC1', 'U2OS', '%', 92),
  ('CN1CCC[C@@H]1CCO[C@](C)(c1ccccc1)c1ccc(Cl)cc1.O=C(O)/C=C/C(=O)O [CLEMASTINE FUMARATE]', 'U2OS', '%', 88),
  ('CCOCCn1cc(C(=O)Nc2ccc(-n3nc(-c4cccnc4)cc3C(F)(F)F)cn2)ccc1=O [BI 1935]', 'U2OS', '%', 89),
  ('CN1CCN(CCOc2cc(OC3CCOCC3)c3c(Nc4c(Cl)ccc5c4OCO5)ncnc3c2)CC1 [SARACATINIB]', 'U2OS', '%', 92);

---

The following compounds are listed with their measured Population Mitochondria Different-Phenotype (%) values.
# System: U2OS
# Measurement notes: Multiplex assay against U2OS
# Assay type: toxicity, cell-based
# Cond: human, 12 h, 1 µM, compound concentration 1 uM, replicate 1
Reported endpoint: Population Mitochondria Different-Phenotype (%)

INSERT INTO measurements (compound, observed_result) VALUES
  ('CN(C)C(=O)/C(C#N)=C/c1ccc(-c2nc3cnc4[nH]ccc4c3n2C2CCCCC2)o1', 14),
  ('OC1(c2ccc(Cl)cc2)CCN(Cc2c[nH]c3ccccc23)CC1', 15),
  ('CN1CCC[C@@H]1CCO[C@](C)(c1ccccc1)c1ccc(Cl)cc1.O=C(O)/C=C/C(=O)O [CLEMASTINE FUMARATE]', 18),
  ('CC[C@H](C)C(=O)O[C@H]1C[C@@H](C)C=C2C=C[C@H](C)[C@H](CC[C@@H]3C[C@@H](O)CC(=O)O3)[C@H]21 [LOVASTATIN]', 5),
  ('NC(=O)Nc1cc(-c2cccc(F)c2)sc1C(=O)N[C@H]1CCCNC1 [AZD-7762]', 17),
  ('Cc1nc(Nc2n[nH]c3c2CN(C(=O)N[C@H](CN(C)C)c2ccccc2)C3(C)C)c2sccc2n1 [PF-03758309]', 21),
  ('CNc1nc(NCc2ccc(NS(C)(=O)=O)cc2Cl)cc(-c2ccccn2)n1', 12),
  ('C=CC(=O)Nc1cccc(C(=O)Nc2ccc(Nc3cc(-c4[nH]c(SC)nc4C)ccn3)cc2)c1', 8);
